IC50 for assorted molecules
Test system: RNA polymerase II Serine 5 phosphorylation (CDK7) in A549 cells
measurementLabel: IC50 (nM)

1. CC#CC(=O)N1CC(N2CCN(c3cc(C)c4c(c3)Nc3ncnc(N5CCS(=O)(=O)CC5)c3[C@@H](C)O4)CC2)C1 = 214
2. C=CC(=O)N1CC(N2CC[C@H](c3cc(C)c4c(c3)Nc3ncnc(N5CCOCC5)c3CO4)C2)C1 = 603
3. CC#CC(=O)N1CC(N2CCC(c3cc4c(c(C)n3)O[C@@H](C)c3c(ncnc3N3CCS(=O)(=O)CC3)N4)CC2)C1 (single isomer, unassigned) = 3160
4. C=CC(=O)N1CC(N2CCC(c3cc(C#N)c4c(c3)Nc3ncnc(-c5cnn(C)c5)c3CO4)CC2)C1 = 1170
5. C=CC(=O)N1CC(N2CCC(c3cc(C)c4c(c3)Nc3ncnc(-c5cn(C)nc5C)c3CO4)CC2)C1 = 363

Measured values drawn from patent US20240109912A1 for this set.
